Molecular target: UniProt Q12809
Sequence (Q12809 whole entry): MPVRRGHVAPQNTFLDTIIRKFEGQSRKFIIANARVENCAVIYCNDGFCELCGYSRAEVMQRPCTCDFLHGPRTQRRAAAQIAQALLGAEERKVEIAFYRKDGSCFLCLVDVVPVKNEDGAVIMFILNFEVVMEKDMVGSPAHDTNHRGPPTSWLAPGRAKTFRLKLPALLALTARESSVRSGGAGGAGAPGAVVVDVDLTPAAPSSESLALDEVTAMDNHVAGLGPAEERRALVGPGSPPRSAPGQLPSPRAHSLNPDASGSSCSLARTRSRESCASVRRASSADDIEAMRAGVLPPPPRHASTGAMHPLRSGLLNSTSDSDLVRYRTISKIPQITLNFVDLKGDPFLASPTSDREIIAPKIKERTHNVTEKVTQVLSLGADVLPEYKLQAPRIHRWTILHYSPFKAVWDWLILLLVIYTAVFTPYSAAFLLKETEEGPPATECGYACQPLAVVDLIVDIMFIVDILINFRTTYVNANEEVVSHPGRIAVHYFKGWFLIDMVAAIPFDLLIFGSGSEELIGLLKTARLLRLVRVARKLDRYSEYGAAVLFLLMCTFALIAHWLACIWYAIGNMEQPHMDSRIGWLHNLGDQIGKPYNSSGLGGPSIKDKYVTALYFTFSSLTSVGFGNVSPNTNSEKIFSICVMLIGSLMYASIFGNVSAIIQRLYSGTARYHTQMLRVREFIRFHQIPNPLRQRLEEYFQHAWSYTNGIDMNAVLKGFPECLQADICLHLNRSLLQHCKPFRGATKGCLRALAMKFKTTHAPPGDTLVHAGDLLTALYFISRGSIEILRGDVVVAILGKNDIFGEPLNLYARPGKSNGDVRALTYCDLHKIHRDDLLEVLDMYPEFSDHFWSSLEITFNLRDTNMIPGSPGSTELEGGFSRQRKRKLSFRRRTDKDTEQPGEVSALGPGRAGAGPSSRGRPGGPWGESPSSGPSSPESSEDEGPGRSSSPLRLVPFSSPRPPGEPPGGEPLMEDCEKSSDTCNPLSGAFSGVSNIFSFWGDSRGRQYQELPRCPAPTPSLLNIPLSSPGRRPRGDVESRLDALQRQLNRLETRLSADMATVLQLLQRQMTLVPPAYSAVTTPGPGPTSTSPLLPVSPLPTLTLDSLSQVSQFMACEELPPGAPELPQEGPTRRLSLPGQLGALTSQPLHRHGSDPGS
Assay: Inhibition of hERG expressed in HEK293 cells by whole-cell patch clamp technique

smilesStr: O=C1NCCCCn2cc(cn2)-c2cnc3ccc(cc3c2)CCn2nc(ccc2=O)-c2ccc1c(C(F)(F)F)c2
unitsLabel: µM
IC50: 27.7

====

Assay: MRT (0 to t) in Sprague-Dawley rat at 10 mg/kg, po measured for 24 hrs by LC-MS/MS analysis
Assay type: ADME, organism-based
Conditions: in vivo
assayReadout: MRT last at 24 h

smilesStr: O=C1NCCCCn2cc(cn2)-c2cnc3ccc(cc3c2)CCn2nc(ccc2=O)-c2ccc1c(C(F)(F)F)c2
assayReadout: MRT last at 24 h
measuredResult: 1.71 h

The values you see were collected from ChEMBL document CHEMBL5096238.
